Molecular target: Schweinepankreaslipase (Sus scrofa, UniProt P00591)
Sequence (P00591 whole entry): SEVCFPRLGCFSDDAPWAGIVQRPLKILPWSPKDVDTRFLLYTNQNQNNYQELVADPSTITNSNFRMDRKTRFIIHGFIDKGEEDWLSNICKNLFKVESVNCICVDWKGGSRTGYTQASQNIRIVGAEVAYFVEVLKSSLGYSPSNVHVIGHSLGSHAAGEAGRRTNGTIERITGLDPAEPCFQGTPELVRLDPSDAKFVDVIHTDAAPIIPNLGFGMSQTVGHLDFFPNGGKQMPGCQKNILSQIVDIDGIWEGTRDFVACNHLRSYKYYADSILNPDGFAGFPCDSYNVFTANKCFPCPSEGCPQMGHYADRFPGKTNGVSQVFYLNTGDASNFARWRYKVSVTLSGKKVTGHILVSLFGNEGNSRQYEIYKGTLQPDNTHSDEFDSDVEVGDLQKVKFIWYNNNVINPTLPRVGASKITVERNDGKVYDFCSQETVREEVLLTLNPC
Experiment: Inhibition of pancreatic lipase (titrimetric measurement of oleic acid released from triolein)
Type: biochemical, Schwein
Conditions: substrate triolein emulsion, pH 8, NaOH consumption over 10 min, 1-3 µg lipase; concentration giving half-maximal inhibition of lipase activity; read-out: IC₅₀ (converted)
Consider the following molecules and their measured IC50 readings.
Kindly provide the numeric value in nM only, without the unit symbol.

So what's the measured IC50 for this one? CCCCCCCCCCCCCCCCC[C@@H](C[C@@H]1OC(=O)[C@H]1CC)OC(=O)C(C)C(N)=O (stereo partly shown) [Beispiel 10e] 56

Value lookup for IC50; key = CCCCC/C=C\C/C=C\CCCCCCC[C@@H](C[C@@H]1OC(=O)[C@H]1CC)OC(=O)C(C(N)=O)C(C)C (single isomer, unassigned) [Beispiel 2g1] 103

What value of IC50 has been recorded for this entry: CCCCCCCCCCC[C@@H](C[C@@H]1OC(=O)[C@H]1CCCCCC)OC(=O)C(C(N)=O)C(C)C (single isomer, unassigned) 131

New cases:
Give its IC50 value. Item: CCCCCCCCCCCCCCCCC[C@@H](C[C@@H]1OC(=O)[C@H]1CC)OC(=O)CC(=O)N(C)C [Beispiel 10d] 948

Requested field: IC50. Item: CCCCCCCCCCC[C@@H](C[C@@H]1OC(=O)[C@H]1CCCCCC)OC(=O)C(CCCC)C(N)=O (mixture of isomers) 242

Find the recorded IC50 belonging to CCCCCCCCCCCCCCCCC[C@@H](C[C@@H]1OC(=O)[C@H]1CC)OC(=O)C1(C(N)=O)OCCO1 and report it. 894

Requested field: IC50. Item: CCCCCCCCCCCCCCCCC[C@@H](C[C@@H]1OC(=O)[C@H]1CC)OC(=O)C(N)=O [Beispiel 10a] 183

These measurements were taken from patent EP0444482B1.
